These data points were gathered from patent US9790252B2.

tested on: HEK293 cells; experiment: Toxicity to HEK293 cells (MTT); type: cell-based; conditions: Homo sapiens, HEK293, HEK293; 2′-deoxy-2′-fluoro-nucleosides and nucleotides
Measure name: EC50

[[record]]
molecule = "NC(=O)c1ccc[n+]([C@@H]2O[C@H](CO)C(O)[C@@H]2F)c1 (some centres unmarked)"
measure_name = "EC50"
result = "17 µM"

[[record]]
molecule = "NC(=O)c1ccc[n+]([C@@H]2O[C@H](COP(=O)([O-])O)C(O)C2(F)F)c1 (some centres unmarked)"
measure_name = "EC50"
result = "118 µM"

[[record]]
molecule = "NC(=O)c1ccc[n+]([C@@H]2O[C@H](CO)[C@@H](O)C2(F)F)c1"
measure_name = "EC50"
result = "846 µM"

[[record]]
molecule = "NC(=O)c1ccc[n+]([C@@H]2O[C@H](CO)C(O)C2F)c1 (some centres unmarked)"
measure_name = "EC50"
result = "550 µM"

[[record]]
molecule = "NC(=O)c1ccc[n+]([C@@H]2O[C@H](COP(=O)([O-])OP(=O)(O)OC[C@H]3O[C@@H](n4cnc5c(N)ncnc54)[C@H](O)[C@@H]3O)[C@@H](O)C2(F)F)c1"
measure_name = "EC50"
result = "1130 µM"

